molecular target: T1, Human EphA2 (Ecto) (Human, UniProt P29317 24-537); assay: FP competition, tracer Compound 18
T1 construct: extracellular domain
T1 sequence (P29317 24-537): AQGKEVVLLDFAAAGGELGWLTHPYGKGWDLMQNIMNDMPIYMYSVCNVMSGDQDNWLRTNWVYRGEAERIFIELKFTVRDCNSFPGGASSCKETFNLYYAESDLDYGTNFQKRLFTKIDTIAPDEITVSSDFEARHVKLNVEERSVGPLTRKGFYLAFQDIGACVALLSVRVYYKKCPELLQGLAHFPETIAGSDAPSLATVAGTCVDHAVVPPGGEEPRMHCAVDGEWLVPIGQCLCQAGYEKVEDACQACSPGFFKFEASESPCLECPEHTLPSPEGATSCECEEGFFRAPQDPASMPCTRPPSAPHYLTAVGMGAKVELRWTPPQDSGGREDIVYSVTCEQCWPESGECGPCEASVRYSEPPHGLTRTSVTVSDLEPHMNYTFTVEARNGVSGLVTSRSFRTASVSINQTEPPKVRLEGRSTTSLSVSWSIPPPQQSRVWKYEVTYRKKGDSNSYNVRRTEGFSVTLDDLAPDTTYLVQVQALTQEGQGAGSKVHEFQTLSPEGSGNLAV
pKi: −log10 of the molar value. Starred links: 1 amine or outer side, 2 acyl side, 3 side chain; linkers in the order of their positions; H or OH if unused. Positions of bridges follow the written chain, without caps; N, C: chain ends. Non-standard residues stand in square brackets, D forms with d. Primed or numbered codes have the meaning given here. No end group written: not given here. TBMB′ = 1,3,5-tris(bromomethyl)benzene, 1,3,5-tris(methylene)benzene core, three thioethers to Cys; TBMB = c1c(C[*:1])cc(C[*:3])cc1C[*:2]; Ala(cPr) = N[C@@H](CC1CC1)C(=O)O; Pip = O=C(O)[C@@H]1CCCCN1; Sar = CNCC(=O)O
This listing pairs binders with measured pKi.
REPORTED PROPERTY: pKi

[[record]]
binder = "[Sar][Sar]AHDV[Pip]CPWGPFWCPVNRPGC (linker 8-15-22 via TBMB) [Bicycle Compound 222]"
test_value = 8.47

[[record]]
binder = "Ac-[Sar][Sar][dH]DVPCPWGPFWCPVNRPGC (linker 7-14-21 via TBMB) [Bicycle Compound 224]"
test_value = 8.96

[[record]]
binder = "Ac-[Sar][Sar]A[dD][Ala(cPr)]TCPWGPFWCPVNRPGC (linker 7-14-21 via TBMB′) [Bicycle Compound 161]"
test_value = 8.35

